# assay-info: Stability in human liver microsomes
# Type: in vitro ADME
# assay-conditions: 60 min at 37° C., NADPH
assay-endpoint: percent remaining after 60 min in human liver microsomes

>  <molecule>
O=C(c1ccc(-c2cc(-c3ccnc(C4(CO)CC4)c3)cs2)c(Cl)c1)N1CCC(O)CC1 [Compound I-1628961]

>  <test-value>
+++ (≥60.1 = +++)

$$$$
>  <molecule>
O=C(c1ccc(-c2cc(-c3ccnc(C4(CO)CCC4)c3)cs2)c(Cl)c1)N1CCC(O)CC1 [Compound I-1629089]

>  <test-value>
+ (0-30 = +)

$$$$
>  <molecule>
O=C(c1ccc(-c2cc(-c3ccnc(OC4COC4)c3)cs2)c(Cl)c1)N1CCC(O)CC1 [Compound I-1629100]

>  <test-value>
+++ (≥60.1 = +++)

$$$$
>  <molecule>
O=C(c1ccc(-c2cc(-c3ccnc4c3OCCN4)cs2)c(Cl)c1)N1CCC(O)CC1 [Compound I-1629067]

>  <test-value>
+ (0-30 = +)

$$$$
>  <molecule>
CC1(O)CCN(C(=O)c2ccc(-c3cc(-c4ccnc(C5(CO)CC5)c4)cs3)c(Cl)c2)CC1 [Compound I-1629069]

>  <test-value>
+ (0-30 = +)

$$$$

====

# assay-info: Stability in human liver microsomes
# Format: in vitro ADME
# assay-conditions: 60 min at 37° C., NADPH
assay-endpoint: percent remaining after 60 min in human liver microsomes

>  <molecule>
O=C(c1ccc(-c2cc(-c3ccnc(O[C@@H]4CO[C@H]5[C@@H]4OC[C@H]5O)c3)cs2)c(Cl)c1)N1CCC(O)CC1 [Compound I-1629106]

>  <test-value>
+++ (≥60.1 = +++)

$$$$
>  <molecule>
O=C(c1ccc(-c2cc(-c3ccnc(OC4CC(CO)C4)c3)cs2)c(Cl)c1)N1CCC(O)CC1 (centres unmarked) [Compound I-1629110]

>  <test-value>
+++ (≥60.1 = +++)

$$$$
>  <molecule>
O=C(c1ccc(-c2cc(-c3ccnc(C4(O)COC4)c3)cs2)c(Cl)c1)N1CCC(O)CC1 [Compound I-1629083]

>  <test-value>
+++ (≥60.1 = +++)

$$$$
>  <molecule>
CC(C)(O)COc1cc(-c2csc(-c3ccc(C(=O)N4CCC(O)CC4)cc3Cl)c2)ccn1 [Compound I-1629101]

>  <test-value>
+++ (≥60.1 = +++)

$$$$
>  <molecule>
O=C(c1ccc(-c2cc(-c3ccnc(C4(O)CCC4)c3)cs2)c(Cl)c1)N1CCC(O)CC1 [Compound I-1629076]

>  <test-value>
+++ (≥60.1 = +++)

$$$$
>  <molecule>
O=C(c1ccc(-c2cc(-c3ccnc(C4CCCO4)c3)cs2)c(Cl)c1)N1CCC(O)CC1 (centres unmarked) [Compound I-1628777]

>  <test-value>
+ (0-30 = +)

$$$$
>  <molecule>
O=C(c1ccc(-c2cc(-c3ccnc(CC4(F)CCC4)c3)cs2)c(Cl)c1)N1CCC(O)CC1 [Compound I-1629078]

>  <test-value>
+ (0-30 = +)

$$$$
>  <molecule>
O=C(c1ccc(-c2cc(-c3ccnc(C4CCOC4)c3)cs2)c(Cl)c1)N1CCC(O)CC1 (centres unmarked) [Compound I-1628763]

>  <test-value>
+ (0-30 = +)

$$$$
>  <molecule>
O=C(c1ccc(-c2cc(-c3ccnc(OCC4CC(O)C4)c3)cs2)c(Cl)c1)N1CCC(O)CC1 (centres unmarked) [Compound I-1629118]

>  <test-value>
+++ (≥60.1 = +++)

$$$$
>  <molecule>
O=C(c1ccc(-c2cc(-c3ccnc(OC4CC4)c3)cs2)c(Cl)c1)N1CCC(O)CC1 [Compound I-1629059]

>  <test-value>
+++ (≥60.1 = +++)

$$$$
>  <molecule>
O=C(c1ccc(-c2cc(-c3ccnc4c3NCCO4)cs2)c(Cl)c1)N1CCC(O)CC1 [Compound I-1629084]

>  <test-value>
+ (0-30 = +)

$$$$
>  <molecule>
O=C(c1ccc(-c2cc(-c3ccnc(CC4(O)CCC4)c3)cs2)c(Cl)c1)N1CCC(O)CC1 [Compound I-1629077]

>  <test-value>
+ (0-30 = +)

$$$$
>  <molecule>
O=C(c1ccc(-c2cc(-c3ccnc(C4CCOCC4)c3)cs2)c(Cl)c1)N1CCC(O)CC1 [Compound I-1628752]

>  <test-value>
+ (0-30 = +)

$$$$
